- TEST_SYSTEM: T1, human TIGIT expressed on cells (human, UniProt Q495A1 22-244)
- T1 construct: whole, on cells; on Jurkat E6.1 cells transduced with human TIGIT, on Promega TIGIT Effector cells or on human primary T cells; the assay field says which; also called hTIGIT; Jurkat-hTIGIT
- T1 sequence (looked up): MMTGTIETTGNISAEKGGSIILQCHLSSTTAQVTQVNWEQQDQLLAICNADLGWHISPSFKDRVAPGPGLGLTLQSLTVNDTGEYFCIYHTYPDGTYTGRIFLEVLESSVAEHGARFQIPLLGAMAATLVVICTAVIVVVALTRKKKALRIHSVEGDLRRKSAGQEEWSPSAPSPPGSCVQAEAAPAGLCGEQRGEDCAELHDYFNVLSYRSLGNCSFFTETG
- PROTOCOL_SUMMARY: flow cytometry, 100 nM Ab, Jurkat-hTIGIT vs untransfected
READOUT: FON (Fold Over Negative) (fold)
The reply should contain only the number, in fold.

These solved cases illustrate the format of a correct answer.
1. anti-TIGIT antibody clone 26518 (IgG) (antibody, V domains shown, parent clone) VH: EVQLVESGGGLVQPGGSLRLSCAASGFTFSSYGMSWVRQAPGKGLEWVANIKQDGSEKYYVDSVKGRFTISRDNAKNSLYLQMNSLRAEDTAVYYCARVSYYYDSSKLRWAEYFQHWGQGTLVTVSS VL: EIVLTQSPATLSLSPGERATLSCRASQSVSSYLAWYQQKPGQAPRLLIYDASKRATGIPARFSGSGSGTDFTLTISSLEPEDFAVYYCQQVHNFPLTFGGGTKVEIK :: 154
2. anti-TIGIT antibody clone 29513 (IgG) (antibody, V domains shown) VH: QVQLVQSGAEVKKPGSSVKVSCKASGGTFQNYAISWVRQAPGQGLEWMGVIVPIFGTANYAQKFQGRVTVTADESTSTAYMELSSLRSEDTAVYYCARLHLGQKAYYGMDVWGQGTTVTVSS VL: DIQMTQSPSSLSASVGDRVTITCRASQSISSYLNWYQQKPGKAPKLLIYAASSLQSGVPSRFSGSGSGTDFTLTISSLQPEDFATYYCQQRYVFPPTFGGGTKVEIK :: 156

The binder identified as anti-TIGIT antibody clone 29478 (IgG) (antibody, V domains shown) VH: EVQLVESGGGVVQPGRSLRLSCAASGFTFESYGMVWVRQAPGKGLEWVASILYDGSNRYYADSVKGRFTVSRDNSKNTLYLQMNSLRAEDTAVYYCARVSYYYDSVELRWAEYFQHWGQGTLVTVSS VL: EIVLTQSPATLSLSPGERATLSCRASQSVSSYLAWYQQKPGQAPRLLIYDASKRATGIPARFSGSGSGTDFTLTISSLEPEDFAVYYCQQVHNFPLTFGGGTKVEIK registered its FON (Fold Over Negative) at 182
